assay: Pharmacokinetic study via oral administration in mice, plasma concentrations; assay type: in vivo, mice C57BL/6; settings: C57BL/6, mouse, in vivo, po, 50 mg/kg
Quick list: Tmax per entry.
Express your answer in min, writing the number without its unit.

Here are 2 molecules together with their reported answers.
molecule	value_unit	result
CC(=C/C=C/C(C)=C/C=C/C=C(C)/C=C/C=C(C)/C=C/C(=O)N[C@H]1CC[C@H](O)CC1)/C=C/C(=O)O	min	15
CC(=C/C=C/C(C)=C/C=C/C=C(C)/C=C/C=C(C)/C=C/C(=O)N1CCC(O)CC1)/C=C/C(=O)O	min	30

The molecule listed as CC(=C/C=C/C(C)=C/C=C/C=C(C)/C=C/C=C(C)/C=C/C(=O)N1CCC(O)C1)/C=C/C(=O)O (stereo in doubt) [C9] has a reported Tmax of 60

For reference, reported Tmax for CC(=C/C=C/C(C)=C/C=C/C=C(C)/C=C/C=C(C)/C=C/C(=O)N1CCCCC1)/C=C/C(=O)O stands at 30

Reported Tmax ( COC1CCN(C(=O)/C=C/C(C)=C/C=C/C(C)=C/C=C/C=C(C)/C=C/C=C(C)\C=C\C(=O)O)CC1 ) = 30

Tmax reported for this molecule CC(=C/C=C/C(C)=C/C=C/C=C(C)/C=C/C=C(C)/C=C/C(=O)N1CCCOCC1)/C=C/C(=O)O : 60

Consider CCCOC1CCN(C(=O)/C=C/C(C)=C/C=C/C(C)=C/C=C/C=C(C)/C=C/C=C(C)\C=C\C(=O)O)CC1 . Its measured Tmax is 15

Tmax measured on CCOCC1CCN(C(=O)/C=C/C(C)=C/C=C/C(C)=C/C=C/C=C(C)/C=C/C=C(C)\C=C\C(=O)O)CC1 = 60

Consider CC(=C/C=C/C(C)=C/C=C/C=C(C)/C=C/C=C(C)/C=C/C(=O)N1CCC(CO)CC1)/C=C/C(=O)O . Its measured Tmax is 30

Tmax reading for CC(=C/C=C/C(C)=C/C=C/C=C(C)/C=C/C=C(C)/C=C/C(=O)NCCCN1CCOCC1)/C=C/C(=O)O : 30

Notebook: CC(=C/C=C/C(C)=C/C=C/C=C(C)/C=C/C=C(C)/C=C/C(=O)NCCN1CCOCC1)/C=C/C(=O)O , Tmax read as 60

Measured Tmax, CC(=C/C=C/C(C)=C/C=C/C=C(C)/C=C/C=C(C)/C=C/C(=O)N1C[C@@H](C)O[C@@H](C)C1)/C=C/C(=O)O : 30

CC(=C/C=C/C(C)=C/C=C/C=C(C)/C=C/C=C(C)/C=C/C(=O)N1CCCC1)/C=C/C(=O)O has a reported Tmax of 30

Per the records, this molecule ( CC(=C/C=C/C(C)=C/C=C/C=C(C)/C=C/C=C(C)/C=C/C(=O)NCC(C)(C)N1CCOCC1)/C=C/C(=O)O ) has Tmax equal to 30

The molecule listed as CC(=C/C=C/C(C)=C/C=C/C=C(C)/C=C/C=C(C)/C=C/C(=O)N1CCC(C(=O)O)CC1)/C=C/C(=O)O has a reported Tmax of 30

# molecule CC(=C/C=C/C(C)=C/C=C/C=C(C)/C=C/C=C(C)/C=C/C(=O)NCCc1ccc(O)cc1)/C=C/C(=O)O ; its Tmax = 60

Record CC(=C/C=C/C(C)=C/C=C/C=C(C)/C=C/C=C(C)/C=C/C(=O)N1CCC(O)C1)/C=C/C(=O)O (stereo in doubt) [C11] , field Tmax: 60

Tmax reading for COC1CCCN(C(=O)/C=C/C(C)=C/C=C/C(C)=C/C=C/C=C(C)/C=C/C=C(C)\C=C\C(=O)O)C1 (centres unmarked) : 60

Summary for this molecule, CC(=C/C=C/C(C)=C/C=C/C=C(C)/C=C/C=C(C)/C=C/C(=O)NCCO)/C=C/C(=O)O : Tmax is 60

Lab note: COCCNC(=O)/C=C/C(C)=C/C=C/C(C)=C/C=C/C=C(C)/C=C/C=C(C)\C=C\C(=O)O gave Tmax of 30
